Biological target: acetylcholine receptor
Assay: SPR, receptor on CM5 chip, peptide 10 µM
observationType: Binding affinity (RU)
Give bare numbers, in RU.

// solved cases for Binding affinity (RU) follow
For KKLIYR [6mer-1-469] the binder record lists Binding affinity (RU) as 139

For KRRRSK [6mer-1-523] the binder record lists Binding affinity (RU) as 139

Batch: Binding affinity (RU) for all items listed.
1. KRGFSK [6mer-1-104]
2. KRWVLK [6mer-1-518]
3. RKVRYK [6mer-1-478]

1. 121
2. 153
3. 139
